# Test system: DIV14
# test: qHTS profiling for inhibitors of Plasmodium falciparum proliferation (AID 504749); note: nearly all actives have a fitted effect of over 60% in size
# condition summary: P. falciparum in erythrocytes, SYBR Green DNA, 72 h; series mostly up to 28.7 µM
Records with an inconclusive call do not appear. Calls of active or inactive are those of the source. Calls come from the whole dose curve; as a rule, active = well fitted inhibition curve with a large enough effect; inconclusive = small, poorly fitted or top-dose-only effect; inactive = flat fitted curve, though single readings scatter.
assay endpoint: Potency

Past entries and their recorded results:
1) CN1C(=O)CN=C(c2ccccc2)c2cc([N+](=O)[O-])ccc21
inactive
2) CCNc1nc(Cl)nc(NCC)n1
inactive
3) CCS(=O)(=O)C(C)(C)S(=O)(=O)CC
inactive
4) COP(=O)(OC)C(O)C(Cl)(Cl)Cl (stereo unspecified)
inactive
5) C[C@]12CC[C@H]3[C@@H](CC=C4C[C@@H](O)CC[C@@]43C)[C@@H]1CC[C@@H]2O
inactive

Task item: State its Potency for this compound: NC(=O)CN1CCCC1=O
Reply: inactive

Task item: State its Potency for this compound: NCc1cccnc1
Reply: inactive

Task item: State its Potency for this compound: CC(C)[N+](C)(CCC(C(N)=O)(c1ccccc1)c1ccccc1)C(C)C
Reply: inactive

Task item: State its Potency for this compound: C[N+]1(CCC(C(N)=O)(c2ccccc2)c2ccccc2)CCCCC1
Reply: inactive
